Data origin, for the record: a melting point compilation (Tetko et al.; mined from patent text by program, amines drawn as free bases though some values may be those of a salt)

Property: melting point; scope: individual compounds

Compound | melting point
CCOC(=O)/C=C/c1cc(OCOC)nn1Cc1ccc(Cl)cc1Cl | 98 to 99 °C
O=C(O)c1c(O)cccc1Cc1cccs1 | 155 to 158 °C
CCCCOc1ccc(C(=O)N[C@@H]2CCc3cccc(N4CCN(C)CC4)c3C2)cc1 | 190 to 191 °C
Cc1ccc(S(=O)(=O)Nc2ccc(C(=O)CN3CCN(c4ccncc4)CC3)cc2)cc1 | 168 to 170 °C
CCC(NS(=O)(=O)c1ccc(N2CCOCC2)cc1)C(=O)O (stereo unspecified) | 163 to 165 °C
CC(=O)N1CCc2cc(Br)cc(N)c21 | 154 to 155 °C
CCOCCOC(=O)c1nc2ccc(COc3cccc(OCc4ccc5ccccc5n4)c3)cc2o1 | 84 to 85 °C
OCCNc1ncc(CN2CCN(c3ccccc3)CC2)c2nc(-c3ccco3)nn12 | 169 °C
CCOC(=O)C1=C(C)NC(C)=C(C(=O)c2ccco2)C1c1ccccc1[N+](=O)[O-] (stereo unspecified) | 133 to 134 °C
N#CC1(O)CCN(c2ncccc2F)CC1 | 76 to 78 °C
CC(C)S(=O)(=O)N1CCC2(CC1)OCCO2 | 66 to 67 °C
COc1cc(OC)c2c(=O)c(O)c(-c3ccc(OC)c(OC)c3)oc2c1 | 192 to 194 °C
CCOC(=O)Nc1cc(=O)c2cc(Oc3ccccc3)c(NS(C)(=O)=O)cc2o1 | 207 to 209 °C
CCCc1c(OCCCCCCc2cccc(OCCCCCO)c2CCC(=O)O)ccc2c1OCCC2=O | 102 to 103 °C
COC(=O)COc1cc2cccnc2c(-c2cccc([N+](=O)[O-])c2)n1 | 160 to 162 °C
O=S(=O)(c1ccccc1)c1ccc(/C=C/C(O)(C(F)F)C(F)F)cc1 | 123 to 124 °C
CC(=O)OCC(=O)COC(C)=O | 45.5 to 46.6 °C
Cc1cc(OC(F)(F)C(F)Cl)ccc1NC(=O)CCCC=C(F)F (stereo unspecified) | 59 to 60 °C
Nc1ccc(-c2ncn(-c3ccc(OC(F)(F)F)cc3)n2)cc1 | 147 °C
CC(=O)OC1CCN(c2ccc3[nH]c(=O)ccc3c2)CC1 | 245 to 250 °C
Cc1c(N2C[C@@H]3[C@@H](O)CCN3C2=O)ccc(C#N)c1Cl | 148 to 149 °C
